Hey, just so you know, these numbers are from patent US20080125432A1.

- measured on: human Kv4.3/KChIP2.2 potassium channel (Homo sapiens)
- Construct: expressed in transfected cells
- Sequence (Q9UK17 whole entry): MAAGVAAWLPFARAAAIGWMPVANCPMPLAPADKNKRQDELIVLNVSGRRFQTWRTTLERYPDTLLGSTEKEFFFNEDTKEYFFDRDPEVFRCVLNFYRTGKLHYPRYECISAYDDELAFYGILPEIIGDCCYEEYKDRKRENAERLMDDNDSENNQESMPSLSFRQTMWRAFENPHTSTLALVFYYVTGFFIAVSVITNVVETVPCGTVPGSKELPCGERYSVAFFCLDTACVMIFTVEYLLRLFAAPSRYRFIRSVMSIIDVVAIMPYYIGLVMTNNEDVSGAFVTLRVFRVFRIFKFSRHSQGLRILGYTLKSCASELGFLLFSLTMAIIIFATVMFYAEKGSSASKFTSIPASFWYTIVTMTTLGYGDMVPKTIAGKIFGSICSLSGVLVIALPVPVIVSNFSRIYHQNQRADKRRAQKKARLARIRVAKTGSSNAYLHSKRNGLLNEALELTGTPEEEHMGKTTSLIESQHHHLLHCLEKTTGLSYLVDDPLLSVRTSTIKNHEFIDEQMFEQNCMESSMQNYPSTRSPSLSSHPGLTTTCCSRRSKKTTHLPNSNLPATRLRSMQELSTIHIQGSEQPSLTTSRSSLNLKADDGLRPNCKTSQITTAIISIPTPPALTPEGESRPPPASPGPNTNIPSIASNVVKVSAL
- protocol: Whole cell patch clamp, CHO-K1 cells stably expressing human Kv4.3/KChIP2.2
- Type: cell-based
- protocol conditions: CHO-K1; remaining current measured after application of the compound and relative to the blank; read-out: Kv4.3 charge in %
observation type: remaining activity at 1 µM (%)

> print(dat)
                                   compound                               measured.on  unit.of.measurement  assay.result
1  COc1ccccc1Nc1nc(C)c(C(=O)NCc2ccc(C)cc2)s1 [Compound 142]  human Kv4.3/KChIP2.2 potassium channel (Homo sapiens)                    %            74
2  COc1ccccc1Nc1nc(C)c(C(=O)N2CCC(n3c(=O)[nH]c4ccccc43)CC2)s1 [Compound 170]  human Kv4.3/KChIP2.2 potassium channel (Homo sapiens)                    %            90
3  Cc1nc(NCc2ccccc2)sc1C(=O)N[C@H]1CCC[C@@H]1OCc1ccccc1 [Compound 211]  human Kv4.3/KChIP2.2 potassium channel (Homo sapiens)                    %            86
